Experiment: Protide stability in normal plasma, cynomolgous monkey
Assay type: in vitro ADME
Conditions: 37° C., 30 min
Field: % Compound Remaining Compared to %100 Acetonitrile Control. Provide a value for each of the compounds that follow.
# unit: % | format: bare number

# input Requested read-out: % Compound Remaining Compared to %100 Acetonitrile Control. Entry: COc1nc(N)nc2c1ncn2C1O[C@H](COP(=O)(N[C@H](C(=O)OCc2ccccc2)C(C)C)Oc2cccc3ccccc23)[C@@H](O)[C@@]1(C)O (stereo partly drawn)
# output 93.7

# input Requested read-out: % Compound Remaining Compared to %100 Acetonitrile Control. Entry: COc1nc(N)nc2c1ncn2C1O[C@H](COP(=O)(N[C@H](C(=O)OCC(C)(C)C)C(C)C)Oc2cccc3ccccc23)[C@@H](O)[C@@]1(C)O (stereo partly drawn)
# output 87.0

# input Requested read-out: % Compound Remaining Compared to %100 Acetonitrile Control. Entry: COc1nc(N)nc2c1ncn2C1O[C@H](COP(=O)(N[C@@H](C)C(=O)OCc2ccccc2)Oc2cccc3ccccc23)[C@@H](O)[C@@]1(C)O (stereo partly drawn)
# output 89.1
